meta.source: patent US20210188843A1

Experiment: Solubility pH 7.4
Format: physicochemical
Settings: aqueous buffer, Table 3
Catalogue of solubility readings, one per entry.

sample.smiles: Cn1c(=N)n(-c2nccc(C(F)(F)F)n2)c2c3cc(-c4ccc(Cl)cc4)ccc3ncc21
units: µg/mL
qualifier.symbol: <
solubility: 1
--
sample.smiles: Cn1c(=N)n(-c2nccc(N)n2)c2c3cc(-c4ccc(Cl)cc4)ccc3ncc21
units: µg/mL
qualifier.symbol: <
solubility: 1
--
sample.smiles: COc1ccnc(-n2c(=N)n(C)c3cnc4ccc(-c5cccc(F)c5)cc4c32)n1
units: µg/mL
qualifier.symbol: =
solubility: 6.5
--
sample.smiles: COc1ccc(-c2ccc3ncc4c(c3c2)n(-c2cncnc2C)c(=N)n4C)cc1F
units: µg/mL
qualifier.symbol: >
solubility: 61
--
sample.smiles: Cn1c(=N)n(-c2nccc(N)n2)c2c3cc(-c4cccc(F)c4)ccc3ncc21
units: µg/mL
qualifier.symbol: =
solubility: 5.2
--
sample.smiles: Cc1ncncc1-n1c(=N)n(C)c2cnc3ccc(-c4ccc(Cl)cc4)cc3c21
units: µg/mL
qualifier.symbol: =
solubility: 24.7
--
sample.smiles: Cn1c(=N)n(-c2cncnc2)c2c3cc(-c4ccc(F)cc4)ccc3ncc21
units: µg/mL
qualifier.symbol: =
solubility: 2
--
sample.smiles: Cc1ccc(-c2ccc3ncc4c(c3c2)n(-c2cncnc2)c(=N)n4C)cn1
units: µg/mL
qualifier.symbol: >
solubility: 54
--
sample.smiles: Cn1c(=N)n(-c2cncnc2)c2c3cc(-c4ccc(C(F)(F)F)nc4)ccc3ncc21
units: µg/mL
qualifier.symbol: =
solubility: 31
